Observed IC50 values for cPLA2 (Homo sapiens, UniProt P47712) are listed in what follows.
# output: bare number, implied unit nM

// IC50 lookup, key: `O=C(O)c1ccc(OCCc2c(CCNS(=O)(=O)Cc3ccsc3)n(C(c3ccccc3)c3ccccc3)c3ccc(Cl)cc23)cc1`
1200

Can you handle O=C(O)c1ccc(OCCc2c(CCNS(=O)(=O)Cc3c(Cl)cccc3Cl)n(C(c3ccccc3)c3ccccc3)c3ccc(Cl)cc23)cc1 [Example 80] next?
3700

Likewise for `O=C(O)c1ccc(OCCc2c(CCNS(=O)(=O)Cc3cccc(C(=O)O)c3)n(C(c3ccccc3)c3ccccc3)c3ccc(Cl)cc23)cc1` ?
1100

// next record `N#Cc1cccc(CS(=O)(=O)NCCc2c(CCOc3ccc(C(=O)O)cc3)c3cc(Cl)ccc3n2C(c2ccccc2)c2ccccc2)c1`
500

Next entry: `O=C(O)c1ccc(CCCc2c(CCNS(=O)(=O)CCN3CCOCC3)n(C(c3ccccc3)c3ccccc3)c3ccc(Cl)cc23)cc1`
120

Try the compound `O=C(O)c1ccc(OCCc2c(CCNS(=O)(=O)CCNc3ccccc3)n(C(c3ccccc3)c3ccccc3)c3ccc(Cl)cc23)cc1`
380

Source of measurements: patent US6635771B2
